Origin of measurements: the supplement of paper PMC8728848

molecular target: Neu5Ac(a2-3)Gal(b1-3)[Fuc(a1-4)]GlcNAc(b1-3)Gal(b1-4)[Fuc(a1-3)]GlcNAc; experiment: glycan array binding signal (z-score within array); higher = stronger binding; conditions: glycan notation: IUPAC condensed, linker removed
The entries come from a sample that favours the strongest signals as a whole.
measuredEndpoint: glycan array binding signal (z-score)
Numbers only.

Query :: Entry CD34 (Homo sapiens), P28906 (protein) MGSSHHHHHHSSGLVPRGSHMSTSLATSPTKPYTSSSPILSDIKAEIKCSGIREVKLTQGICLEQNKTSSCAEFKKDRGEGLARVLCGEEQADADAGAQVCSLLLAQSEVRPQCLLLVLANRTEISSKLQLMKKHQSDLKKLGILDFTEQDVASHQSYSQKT : reported glycan array binding signal (z-score) = ?
Result :: -0.478

Continuing:
Query :: Entry Mermaid1 (Stilbonema majum) (protein) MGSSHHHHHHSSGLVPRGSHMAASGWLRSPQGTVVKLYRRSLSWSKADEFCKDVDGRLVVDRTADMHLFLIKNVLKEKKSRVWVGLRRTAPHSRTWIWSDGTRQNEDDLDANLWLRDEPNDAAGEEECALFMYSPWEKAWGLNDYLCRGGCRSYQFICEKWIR : reported glycan array binding signal (z-score) = ?
Result :: 2.98
